Exercise: for every item that follows, state its recorded protein stability index.
B1: SPSB4 (parent)
chain: LDMDEGTLSFIVDGQYLGVAFRGL

# Variants of: B1
# ASSAY_REMARKS: protein stability index of a GFP-peptide fusion (GPS, HEK-293T) (PSI 1-6); higher = more stable;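 note: lentivirally expressed fusions sorted by FACS into six bins by GFP to DsRed ratio, PSI derived from sequencing read proportions per bin multiplied by bin number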
# MEASUREMENT_PARAMETERS: c terminus: a fixed tail appended
Numbers only.

Example variants with recorded protein stability index:
Give its protein stability index value. Item: `G6S`
4.16

Give its protein stability index value. Item: `R22T`
4.1

Give its protein stability index value. Item: `I11E`
1.39

Give its protein stability index value. Item: `L1K`
1.27

Give its protein stability index value. Item: `G23R`
1.88

Give its protein stability index value. Item: `Q15L`
2.2

Give its protein stability index value. Item: `G14Y`
2.38

Give its protein stability index value. Item: `D13E`
2.83

Provide the reported protein stability index of each entry below, same order.
1. G23N
2. T7L
3. T7P

2.38
1.99
1.64
